# TARGET: T1, human TNFR2 on the surface of CHO-TNFR2 cells (human, UniProt P20333 23-461)
# T1 construct: whole, on cells
# T1 sequence (looked up): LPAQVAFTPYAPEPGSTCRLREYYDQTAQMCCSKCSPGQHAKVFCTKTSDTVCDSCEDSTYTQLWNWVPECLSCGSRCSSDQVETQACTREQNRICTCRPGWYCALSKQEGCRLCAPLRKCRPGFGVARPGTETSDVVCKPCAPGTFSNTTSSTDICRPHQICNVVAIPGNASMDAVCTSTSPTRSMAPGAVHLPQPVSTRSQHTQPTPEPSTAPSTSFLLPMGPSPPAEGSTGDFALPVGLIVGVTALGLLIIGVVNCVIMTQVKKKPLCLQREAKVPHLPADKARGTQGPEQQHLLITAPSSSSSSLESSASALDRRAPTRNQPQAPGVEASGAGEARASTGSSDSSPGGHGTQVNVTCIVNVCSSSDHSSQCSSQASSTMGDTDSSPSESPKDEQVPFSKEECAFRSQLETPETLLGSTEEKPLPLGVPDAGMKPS
# ASSAY OVERVIEW: competition flow cytometry on CHO-TNFR2 cells, competitor TNFα-biotin; AUC against 001-WT
Reported % Relative activity (WT antibody/test antibody) values for the following binders.
EXPERIMENTAL ENDPOINT: % Relative activity (WT antibody/test antibody) (%)

| BINDER | U | ASSAY RESULT |
| --- | --- | --- |
| 001-Hu2 (antibody, V domains shown, Humanized form of #001; also called VH2 + VL2) VH: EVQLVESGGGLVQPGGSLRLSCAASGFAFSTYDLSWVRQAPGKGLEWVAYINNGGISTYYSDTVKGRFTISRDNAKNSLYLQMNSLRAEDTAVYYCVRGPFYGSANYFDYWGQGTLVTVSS VL: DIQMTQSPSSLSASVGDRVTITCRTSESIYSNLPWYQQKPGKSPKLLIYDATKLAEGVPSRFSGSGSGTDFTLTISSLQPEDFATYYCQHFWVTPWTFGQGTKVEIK | % | 95.8 |
| 001-Hu5 (antibody, V domains shown, Humanized form of #001; also called VH1 + VL4) VH: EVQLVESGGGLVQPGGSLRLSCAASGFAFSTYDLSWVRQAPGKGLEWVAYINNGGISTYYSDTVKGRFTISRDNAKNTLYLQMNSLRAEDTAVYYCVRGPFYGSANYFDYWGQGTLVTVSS VL: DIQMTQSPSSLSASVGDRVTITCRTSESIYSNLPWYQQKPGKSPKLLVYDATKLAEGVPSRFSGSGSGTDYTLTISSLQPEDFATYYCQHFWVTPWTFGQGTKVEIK | % | 93.1 |
| 001-Hu3 (antibody, V domains shown, Humanized form of #001; also called VH1 + VL3) VH: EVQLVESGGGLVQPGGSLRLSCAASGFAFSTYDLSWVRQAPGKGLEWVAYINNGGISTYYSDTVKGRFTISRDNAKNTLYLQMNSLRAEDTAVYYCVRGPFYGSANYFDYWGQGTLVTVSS VL: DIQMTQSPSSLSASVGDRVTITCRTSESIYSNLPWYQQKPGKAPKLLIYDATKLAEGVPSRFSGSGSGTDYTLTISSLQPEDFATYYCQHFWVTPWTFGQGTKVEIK | % | 97.8 |
| 001-Hu4 (antibody, V domains shown, Humanized form of #001; also called VH2 + VL4) VH: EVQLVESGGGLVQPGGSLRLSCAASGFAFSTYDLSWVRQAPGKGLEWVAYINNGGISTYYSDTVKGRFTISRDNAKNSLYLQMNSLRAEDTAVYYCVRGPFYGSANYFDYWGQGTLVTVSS VL: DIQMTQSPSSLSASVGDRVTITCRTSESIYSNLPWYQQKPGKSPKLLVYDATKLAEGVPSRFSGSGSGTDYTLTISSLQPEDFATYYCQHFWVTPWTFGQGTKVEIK | % | 93.7 |
| 001-Hu1 (antibody, V domains shown, Humanized form of #001; also called VH1 + VL1) VH: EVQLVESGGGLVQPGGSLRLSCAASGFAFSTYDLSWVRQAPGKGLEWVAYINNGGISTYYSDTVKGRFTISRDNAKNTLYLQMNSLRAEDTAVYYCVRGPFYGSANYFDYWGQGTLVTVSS VL: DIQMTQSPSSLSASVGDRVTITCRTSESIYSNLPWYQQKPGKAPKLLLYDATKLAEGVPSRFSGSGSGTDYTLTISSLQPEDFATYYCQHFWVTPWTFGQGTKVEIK | % | 97.4 |
